# System: transactivating tegument protein VP16 (Human herpesvirus 1), Gal4-VP16 luciferase reporter
# procedure-text: VP16 transactivation inhibitors, counter-screen for SRC3 inhibitor project, cell-based, luminescence, high throughput (AID 588794)
# experimental-setup: mammalian cells, VP16-driven luciferase reporter luminescence; at 3.6 µM; hits give high values
experimental-endpoint: inhibition (%)
Your answer should be a plain number; it is taken to be in %.

Consider the following illustrative entries.
>>> df
                                   compound  experimental_endpoint  recorded_number
0  O=C(CCCN1C(=O)/C(=C/c2ccccc2Cl)SC1=S)NNC(=O)c1ccccc1Cl             inhibition             31.3
1  CCN1C/C(=C\c2cccc([N+](=O)[O-])c2)C(=O)/C(=C/c2cccc([N+](=O)[O-])c2)C1             inhibition             80.6
2                   O=c1[nH]cc(F)c(=O)[nH]1             inhibition               31

Field: inhibition (transactivating tegument protein VP16 (Human herpesvirus 1), Gal4-VP16 luciferase reporter). Entry: O=C(COc1ccccc1[N+](=O)[O-])Nc1ccc(N2CCN(C(=O)c3cccs3)CC2)cc1 7.15

Field: inhibition (transactivating tegument protein VP16 (Human herpesvirus 1), Gal4-VP16 luciferase reporter). Entry: CCN1/C(=C/C(C)=C/c2sc3ccccc3[n+]2CC)Sc2ccccc21 84.2

Measured values drawn from PubChem BioAssay for this set.
